Method: Phase 1 Stage 1 clinical pharmacokinetics of SC ZA co-administered with rHuPH20
Format: in vivo, human
Assay conditions: human, serum, sc, ZA 0.25 mg SC + 24000 U rHuPH20; median, n=3; read-out: Tmax
Method: A pharmacokinetic study of zoledronic acid (ZA) co-administered with rHuPH20 in human subjects was conducted. […] Serum concentration of ZA was determined using a qualified LC-MS-MS assay after derivatization with diazomethane (Zhu, L S et al. (2006) Rapid Commun. […] The assay range was from 2.0 to 400 ng/mL with a lower limit of quantitation (LLOQ) at 2.0 ng/mL. […] Summary statistics (mean, standard deviation, and median) were calculated using JMP or Microsoft Excel.

Compound | Tmax
O=P(O)(O)C(O)(Cn1ccnc1)P(=O)(O)O | 1.31 h
